- MEASURED_TARGET: serotonin reuptake transport (SERT) (Homo sapiens, UniProt P31645)
- Construct: endogenous in cells
- Sequence (P31645 whole entry): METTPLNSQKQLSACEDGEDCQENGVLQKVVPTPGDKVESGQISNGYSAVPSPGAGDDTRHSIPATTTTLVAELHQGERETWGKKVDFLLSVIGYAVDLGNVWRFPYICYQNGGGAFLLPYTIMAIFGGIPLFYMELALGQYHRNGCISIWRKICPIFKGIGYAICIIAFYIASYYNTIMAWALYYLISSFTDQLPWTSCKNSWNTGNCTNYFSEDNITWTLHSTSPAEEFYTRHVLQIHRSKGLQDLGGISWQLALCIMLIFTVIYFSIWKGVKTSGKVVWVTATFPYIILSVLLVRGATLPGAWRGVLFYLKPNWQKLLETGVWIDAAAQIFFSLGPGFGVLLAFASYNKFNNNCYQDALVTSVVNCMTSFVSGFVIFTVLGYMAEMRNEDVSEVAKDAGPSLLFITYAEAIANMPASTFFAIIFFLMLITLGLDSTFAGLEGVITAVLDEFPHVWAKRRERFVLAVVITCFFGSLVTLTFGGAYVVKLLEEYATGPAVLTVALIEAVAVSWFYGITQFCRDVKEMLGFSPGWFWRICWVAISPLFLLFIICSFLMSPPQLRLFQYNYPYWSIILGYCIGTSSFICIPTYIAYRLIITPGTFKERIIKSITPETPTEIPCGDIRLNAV
- ASSAY_OVERVIEW: Inhibition of serotonin uptake in a human platelet assay using tritiated serotonin
QUANTITY_MEASURED: pKi
# pKi is unitless: minus log10 of the molar concentration; print number only

Given the entry CN1CCN2c3c(cccc31)[C@@H]1CN(CCCC(O)c3ccc(F)cc3)CC[C@@H]12 (stereo partly shown) , what pKi was observed with serotonin reuptake transport (SERT) (Homo sapiens, UniProt P31645)?
5.82

###

- ASSAY_OVERVIEW: Single dose oral bioavailability and pharmacokinetic study in Sprague Dawley rats
- Format: in vivo, Sprague Dawley rat
- REPORTED_CONDITIONS: Sprague Dawley (Crl:CD(SD)BR), rat; female rats; plasma; mean; after single oral 30 mg/kg of Example 1; label = analyte; read-out: t½ (converted)
QUANTITY_MEASURED: half-life (h)
Kindly answer with a numeric value in h, unit omitted.

CN1CCN2c3c(cccc31)[C@@H]1CN(CCCC(=O)c3ccc(F)cc3)CC[C@@H]12
23.4

// moving on: another record for half-life
Using the record for CN1CCN2c3c(cccc31)[C@@H]1CN(CCCC(O)c3ccc(F)cc3)CC[C@@H]12 (some centres unmarked) , report its half-life.
11.6
